molecular target: streptavidin, P22629; assay: SPR, BIAcore X100, streptavidin on CM5 chip, peptide in solution
Sequence (P22629 37-163 limits assumed): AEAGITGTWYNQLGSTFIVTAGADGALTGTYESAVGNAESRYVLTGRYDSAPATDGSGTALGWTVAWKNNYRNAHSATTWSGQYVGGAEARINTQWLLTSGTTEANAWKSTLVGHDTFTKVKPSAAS
Measure Name: Kd (µM)
Unit µM implied. Number only.

Given LYDHPQNGGQ (modifications not checked) , respond with its Kd.
9.4

Name the recorded Kd of the binder listed here: "H-QNDHPQNGGQ-OH"
320

Give the measured Kd for QNDHPQNGGQ (modifications not checked)
10.8

Determine its reported Kd: NQPWQ (modifications not checked) [head-to-tail cyclic NQpWQ peptide]
61.3

Read the entry "H-LYDHPQNGGQ-OH" and write its reported Kd.
100
